Assay: NCI Yeast Anticancer Drug Screen. Data for the sgs1 mgt1 strain (AID 161);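 note: 0% = growth of cultures given vehicle only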
Conditions: S. cerevisiae sgs1 mgt1 strain, at 50.0 µM, hits give high values
About 79,000 compounds went through this panel and 15% of them were active in at least one assay; those are over-represented in the sample as a whole.
Param threshold (90%) applies to growth inhibition; output Satisfied when value >= threshold, Not satisfied when value < threshold.

INPUT: Tell me whether growth inhibition is at least 90% here: COc1ccc2c(c1)CCC(N1CCCC(O)C1)C2 (stereo not drawn)
OUTPUT: Not satisfied

INPUT: Tell me whether growth inhibition is at least 90% here: C(=C1/CNC/C(=C/c2ccccc2)C1)/c1ccccc1
OUTPUT: Satisfied

INPUT: Tell me whether growth inhibition is at least 90% here: CCCCNc1ccc(C(=O)OC2CCN(C)CC2)c(Cl)c1
OUTPUT: Satisfied

INPUT: Tell me whether growth inhibition is at least 90% here: CSc1cc(Cl)c(C)cc1S(=O)(=O)NC(=O)Nc1ccc(Cl)cc1
OUTPUT: Satisfied

INPUT: Tell me whether growth inhibition is at least 90% here: O=C(O)CSC(=S)N1CCCC1
OUTPUT: Not satisfied

INPUT: Tell me whether growth inhibition is at least 90% here: Oc1cccc2c(Br)ccnc12
OUTPUT: Not satisfied

INPUT: Tell me whether growth inhibition is at least 90% here: O=C(c1ccccc1)c1c(CO[N+](=O)[O-])n([O-])c2ccccc2[n+]1=O
OUTPUT: Satisfied

INPUT: Tell me whether growth inhibition is at least 90% here: N#CCc1ccccc1-c1cccc2ccccc12
OUTPUT: Not satisfied

INPUT: Tell me whether growth inhibition is at least 90% here: O=C(COc1ccc2ccccc2c1)NC1c2ccccc2Oc2ccccc21
OUTPUT: Not satisfied

INPUT: Tell me whether growth inhibition is at least 90% here: COC(=O)C1(Cc2ccc(C)cc2)Cc2c(C)cccc2C1=O (stereo not drawn)
OUTPUT: Not satisfied

INPUT: Tell me whether growth inhibition is at least 90% here: CSc1cccc(N2C(=O)C=CC2=O)c1
OUTPUT: Satisfied

INPUT: Tell me whether growth inhibition is at least 90% here: ON1CCc2c([nH]c3ccccc23)C1c1ccc(Cl)cc1 (stereo not drawn)
OUTPUT: Not satisfied

INPUT: Tell me whether growth inhibition is at least 90% here: NCC1CCNCC1
OUTPUT: Not satisfied

###

Assay: NCI Yeast Anticancer Drug Screen. Data for the bub3 strain (AID 167)
Settings: S. cerevisiae bub3 mutant strain, at 50.0 µM (retest, dose inferred, filed as 5.0), hits give high values
Compounds without any hit were thinned out: in the full panel of roughly 79,000, 15% have a hit. The source made the active and inactive calls. No stated cut-off is given here; in the data, active means growth inhibition above about 70%; inactive means the rest. Where a SMILES comes first, the peptide text is derived from it. The star is where a group is joined. OSu = O=C1CCC(=O)N1O*; OBn = c1ccc(CO*)cc1; Bn = c1ccc(C*)cc1
assay.readout: growth inhibition

INPUT: Field request: growth inhibition | item: COc1cc(O)c2c(c1)C(=O)C1=C(C2=O)[C@@H](C)OC(C)[C@H]1O (some centres not stated)
OUTPUT: 97% (active)

INPUT: Field request: growth inhibition | item: CCCCC/C(=C/C=C/c1ccc(Cl)cc1)CN(C)C
OUTPUT: 98% (active)

INPUT: Field request: growth inhibition | item: CCCCNc1ccc(C(=O)OC2CCN(C)CC2)c(Cl)c1
OUTPUT: 97% (active)

INPUT: Field request: growth inhibition | item: CCN(CC)CCOC(=O)C1CCCCC1C(=O)C1CCCCC1 (configuration not stated)
OUTPUT: 14% (inactive)

INPUT: Field request: growth inhibition | item: c1ccc(CN2CCC3(CC2)SSC2(CCN(Cc4ccccc4)CC2)SS3)cc1
OUTPUT: 18% (inactive)

INPUT: Field request: growth inhibition | item: C[N+]1=C(/C=C\c2ccc(O)c3ccccc23)C(C)(C)c2ccccc21
OUTPUT: 82% (active)

INPUT: Field request: growth inhibition | item: CN=C(N)NN=C(c1ccc(Cl)cc1)c1ccc(Cl)cc1
OUTPUT: 99% (active)

INPUT: Field request: growth inhibition | item: CC1CCN(CCOC(=O)C(c2ccccc2)C2C=CCCC2)C1 (configuration not stated)
OUTPUT: 55% (inactive)

INPUT: Field request: growth inhibition | item: Clc1ccc(C2=C(c3ccccc3)C(c3ccc(Cl)cc3)N3C(=N[C@H]4CCCC[C@@H]43)N2)cc1 (some centres not stated)
OUTPUT: -1% (inactive)

INPUT: Field request: growth inhibition | item: FC(F)(F)c1ccccc1NC(=S)SCc1ccco1
OUTPUT: 33% (inactive)

INPUT: Field request: growth inhibition | item: CC(C)CC(NC(=O)C(N)CCC(=O)OCc1ccccc1)C(=O)NC(COCc1ccccc1)C(=O)NC(Cc1ccccc1)C(=O)ON1C(=O)CCC1=O (configuration not stated) (H-E(OBn)LS(Bn)F-OSu; configuration not given here)
OUTPUT: 81% (active)

INPUT: Field request: growth inhibition | item: O=C(Nc1ccccc1)C(F)(F)C(F)(F)C(F)(F)F
OUTPUT: 27% (inactive)

INPUT: Field request: growth inhibition | item: CCOC(=O)C(=O)C1CCCCC1=O (configuration not stated)
OUTPUT: 98% (active)

INPUT: Field request: growth inhibition | item: O=C(/C=C/c1cccc([N+](=O)[O-])c1)CCl
OUTPUT: 98% (active)

INPUT: Field request: growth inhibition | item: CC(c1ccc(OCc2ccccc2)cc1)c1cc2c(cc1OCCO)OCO2 (configuration not stated)
OUTPUT: 58% (inactive)

INPUT: Field request: growth inhibition | item: CN(NC(=O)c1cccs1)C1=NCCCN1
OUTPUT: 22% (inactive)

INPUT: Field request: growth inhibition | item: CCCCc1c2c(nc3c1CCCC3O)/C(=C/c1ccccc1)CCC2 (configuration not stated)
OUTPUT: 89% (active)

INPUT: Field request: growth inhibition | item: CN(C)CC(CN1CCCC1)C(=O)c1ccccc1 (configuration not stated)
OUTPUT: 39% (inactive)

INPUT: Field request: growth inhibition | item: COc1ccc(N=NN2CCCC2)cc1
OUTPUT: 50% (inactive)

INPUT: Field request: growth inhibition | item: CC(C)c1ccc(O)c(O)c(=O)c1
OUTPUT: 79% (active)

INPUT: Field request: growth inhibition | item: Cc1ccc(C2=CC(=O)/C(=C\C(=O)c3ccc(Cl)cc3)O2)cc1
OUTPUT: 22% (inactive)

INPUT: Field request: growth inhibition | item: O=C(NC(OCc1ccccc1)(C(F)(F)F)C(F)(F)F)OCc1ccccc1
OUTPUT: 95% (active)

INPUT: Field request: growth inhibition | item: ON=C(CC(O)(C(F)(F)Cl)C(F)(F)Cl)CC(O)(C(F)(F)Cl)C(F)(F)Cl
OUTPUT: 100% (active)

INPUT: Field request: growth inhibition | item: COc1c2c3c(ccnc3c3ccccc13)C(=O)N2C
OUTPUT: 72% (active)

INPUT: Field request: growth inhibition | item: CC(C)C1COC(c2ccc3ccccc3c2-c2c(O[Si](C)(C)C(C)(C)C)ccc3ccccc23)=N1 (configuration not stated)
OUTPUT: 8% (inactive)

INPUT: Field request: growth inhibition | item: c1ccc(-c2c[nH]c(-c3ccccc3)c2-c2ccccc2)cc1
OUTPUT: 92% (active)

INPUT: Field request: growth inhibition | item: CCCCOC(=O)C#CC(=O)OCCCC
OUTPUT: -71% (inactive)

INPUT: Field request: growth inhibition | item: CCCCCCCCCCCC[N+](C)(C)C (tested in a mixture with another compound)
OUTPUT: 99% (active)

INPUT: Field request: growth inhibition | item: O=C(CC1Sc2ccccc2NC1=O)Nc1ccc([N+](=O)[O-])cc1[N+](=O)[O-] (configuration not stated)
OUTPUT: 97% (active)

INPUT: Field request: growth inhibition | item: CN(C)c1nc(-c2ccccc2)cc(-c2ccc(O)cc2)n1
OUTPUT: 77% (active)

INPUT: Field request: growth inhibition | item: CC(=O)Oc1c(-c2ccccc2)cc([N+](=O)[O-])cc1[N+](=O)[O-]
OUTPUT: 65% (inactive)

INPUT: Field request: growth inhibition | item: CCOC(=O)c1[nH]c2c([N+](=O)[O-])cccc2c1[N+](=O)[O-]
OUTPUT: 7% (inactive)

INPUT: Field request: growth inhibition | item: Cc1ccccc1NC(=O)C1C(=O)N(c2ccccc2C)C(=O)/C1=N/O (configuration not stated)
OUTPUT: 1% (inactive)

INPUT: Field request: growth inhibition | item: O=c1c(Cl)nsnc1Cl
OUTPUT: 100% (active)

INPUT: Field request: growth inhibition | item: COc1ccc2c(c1)[n+]([O-])c(-c1ccc(Cl)c(Cl)c1)c(N)[n+]2[O-]
OUTPUT: 99% (active)

INPUT: Field request: growth inhibition | item: CC1=C(C(=O)Nc2ccc(C)cc2C)C(c2cccc([N+](=O)[O-])c2)C(C(=O)Nc2ccc(C)cc2C)=C(C)N1
OUTPUT: 69% (inactive)

INPUT: Field request: growth inhibition | item: Clc1ccc(CN2COc3c(cc(Cl)c4cccnc34)C2)cc1Cl
OUTPUT: 97% (active)

INPUT: Field request: growth inhibition | item: C/C(=N/NC(N)=O)C1CC(CCC2([N+](=O)[O-])CCC(C)(O)C(/C(C)=N\NC(N)=O)C2)([N+](=O)[O-])CCC1(C)O (configuration not stated)
OUTPUT: -3% (inactive)

INPUT: Field request: growth inhibition | item: C=C1C(O)C2(O)OCC34C(CC5C(C)=CC(=O)C(O)C5(C)C23)OC(=O)C(OC(=O)C/C=C(\C)CCCCC)C14 (configuration not stated)
OUTPUT: 99% (active)

INPUT: Field request: growth inhibition | item: O=S(=O)(Nc1ccc2c3c(cccc13)C=C2)c1ccccc1
OUTPUT: 98% (active)

INPUT: Field request: growth inhibition | item: Oc1c(C(O)(c2ccccc2)c2ccc3ccccc3c2O)ccc2ccccc12
OUTPUT: 95% (active)

INPUT: Field request: growth inhibition | item: Cc1ccc(C(=O)OCCN2CCN(c3ccccc3)CC2)c([N+](=O)[O-])c1OCc1ccccc1
OUTPUT: 70% (active)
